Attribute: normalized growth
Method Summary: chemical genetic growth profiling, strain panel (AID 1159580);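 further: tested at 20 µM; growth read once vehicle control cultures reached saturation at 30 °C; 1 = growth at the plate median or of vehicle wells; lower values mean less growth of the strain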
Cond: S. cerevisiae deletion strains, growth OD, locus YBR171W, strain sec66, hits give low values
The campaign covered roughly 5,500 compounds. About 2,000 (36%) were called active. Inconclusive results (about 18%) are left out. This is one part of the list.
Form rule: numeric answer, no unit written next to it.

Some solved entries appear below for comparison.
INSERT INTO measurements (compound, observed_result) VALUES
  ('Nc1ncn([C@@H]2O[C@H](CO)[C@@H](O)[C@H]2O)c(=O)n1', 0.962),
  ('CC1(C)C(C(Cl)Cl)C2(Cl)C(Cl)C(Cl)C1(Cl)C2(Cl)Cl (centres undefined)', 0.978),
  ('Cc1c(Nc2ncccc2C(=O)O)cccc1C(F)(F)F', 0.969),
  ('COc1c2c(cc3c1OCO3)CCN(C)C2', 1.03);

What does the record list as normalized growth for CC(=O)Nc1cc([As](=O)(O)O)ccc1O ? 1.01

Please look up its normalized growth: Cc1ccc(/C(=C\CN2CCCC2)c2ccccn2)cc1 1.02

GET /values?readout=normalized growth&item= CC(C)(C)NC[C@@H](O)COc1nsnc1N1CCOCC1 1.03

Which normalized growth is listed for COC(C)(C)CCC[C@H](C)C/C=C/C(C)=C/C(=O)OC(C)C ? 1.02

Can you look up the measured normalized growth of CCOP(=S)(OCC)SCn1c(=O)oc2cc(Cl)ccc21 for me? 0.922

Returns the measured normalized growth for the input compound. Input: CCC(Cc1c(I)cc(I)c(N)c1I)C(=O)O (centres undefined) 0.921

Find the recorded normalized growth belonging to CC(=O)/C(=C\c1ccccc1)CC(=O)O and report it. 0.992

If you can, please state the reported normalized growth value of O[N+]1=CC=CCC1=S.On1ccccc1=S.[Zn] . 0.0802

Fill in: normalized growth of Cc1ccc2c(Cl)cc(Cl)c(O)c2n1 is ___ 1.04

Which normalized growth is listed for CO[C@H]1/C=C/O[C@@]2(C)Oc3c(C)c(O)c4c(O)c(c5c(nc6cc(C)ccn65)c4c3C2=O)NC(=O)/C(C)=C\C=C\[C@H](C)[C@H](O)[C@@H](C)C(O)[C@@H](C)[C@H](OC(C)=O)[C@@H]1C (some centres undefined) ? 1.06

Endpoint output: normalized growth of CC(=O)NCCCS(=O)(=O)O . Value? 1.03

Give the measured normalized growth of CC(=O)O[C@H]1C[C@@H](OC(C)=O)C(C)(C)C2C[C@@H](OC(C)=O)[C@@]3(C)C4=CC(=O)O[C@@H](c5ccoc5)[C@]4(C)CCC3[C@]21C (some centres undefined) . 1

# lookup: normalized growth of C[C@H]1[C@H]2CCC3C4CC=C5C[C@@H](N(C)C)CC[C@]5(C)C4CC[C@@]32CN1C (some centres undefined) 0.983

For the compound shown here, Nc1ncnc2c1ncn2[C@@H]1O[C@H](CO)[C@@H](O)[C@H]1O , give the reported normalized growth. 0.968

Please look up its normalized growth: CC1(C)CCCC2(C)C3C1[C@@H](O)C2(C)C[C@H]3O (some centres undefined) 1.04

---

Method Summary: chemical genetic growth profiling, strain panel (AID 1159580)
Cond: S. cerevisiae deletion strains, growth OD, locus YDL005C, strain med2, hits give low values
Screen size: about 5,500 compounds; about 2,000 (36%) were called active. Not shown: some 18% with an inconclusive outcome. The list shows a part of the results.
Recorded Endpoint: normalized growth
Field format: numeric only.

Solved cases (2 shown):
INSERT INTO measurements (molecule, observed_result) VALUES
  ('COC(=O)C[C@H]1C(C)(C)C(=O)[C@@H]2CC3=C4CC(=O)O[C@@H](c5ccoc5)[C@]4(C)CCC3[C@@]1(C)C2=O (stereo partly specified)', 0.975),
  ('CC(C)(C)NCC(O)c1ccccc1Cl (stereo unspecified)', 1.01);

# evaluate next
Any idea what its normalized growth is? The molecule is CC(=O)NCCCCCC(=O)O 0.984

---

Method Summary: chemical genetic growth profiling, strain panel (AID 1159580);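 further: tested at 20 µM; growth read once vehicle control cultures reached saturation at 30 °C; 1 = growth at the plate median or of vehicle wells; lower values mean less growth of the strain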
Cond: S. cerevisiae deletion strains, growth OD, locus YDR363W, strain ESC2, hits give low values
The whole screen tested about 5,500 compounds, of which about 2,000 (36%) were called active. Not shown: some 18% with an inconclusive outcome. The list shows a part of the results.
Each entry below lists one item and its recorded normalized growth value.
No unit in the answer, only the number.

Example entries begin here.
INSERT INTO measurements (molecule, observed_result) VALUES
  ('CN/C(=C\[N+](=O)[O-])NCCSCc1ccc(CN(C)C)o1', 1),
  ('CC(C)(C)NCC(O)c1ccccc1Cl (stereo not given)', 0.999),
  ('Cc1cccc(C(=O)NCN2CCN(c3ccccc3C#N)CC2)c1', 0.975),
  ('Nc1nc(Cl)nc2c1ncn2[C@@H]1O[C@H](COP(=O)(O)OP(=O)(O)OP(=O)(O)O)[C@H](O)C1O (stereo not given in full)', 1.01),
  ('CCCC[C@@]1(C2CCCC2)Cc2cc(OCC(=O)O)c(Cl)c(Cl)c2C1=O', 0.989),
  ('CN(C(=O)CCCOc1ccc2[nH]c(=O)ccc2c1)C1CCCCC1', 1),
  ('O=[N+]([O-])c1ccc(CSc2ncnc3c2ncn3[C@@H]2O[C@H](CO)[C@H](O)C2O)cc1 (stereo not given in full)', 1.01),
  ('CC(C)NC[C@H](O)c1ccc(O)c(O)c1', 1);

Give its normalized growth value. Item: CCCCCCCC/C=C\CCCCCCCC(=O)NCCO 0.974

Can you look up the measured normalized growth of Nc1ncnc2c1ncn2[C@@H]1O[C@H](COP(=O)(O)CP(=O)(O)OP(=O)(O)O)[C@H](O)C1O (stereo not given in full) for me? 1

---

# normalized growth values compiled below
Method Summary: chemical genetic growth profiling, strain panel (AID 1159580);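 further: tested at 20 µM; growth read once vehicle control cultures reached saturation at 30 °C; 1 = growth at the plate median or of vehicle wells; lower values mean less growth of the strain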
Cond: S. cerevisiae deletion strains, growth OD, locus YGL253W, strain hxk2, hits give low values
About 2,000 (36%) of roughly 5,500 compounds were called active. Inconclusive results (about 18%) are left out. The list shows a part of the results.

Use these answered entries as a reference point.
INSERT INTO assay_data (molecule, recorded_endpoint, observed_result) VALUES
  ('CO[C@H]1/C=C/O[C@@]2(C)Oc3c(C)c(O)c4c(O)c(c(/C=N/N5CCN(C)CC5)c(O)c4c3C2=O)NC(=O)/C(C)=C\C=C\C(C)[C@H](O)[C@@H](C)[C@@H](O)[C@@H](C)[C@@H](OC(C)=O)[C@@H]1C (some centres undefined)', 'normalized growth', '1.02 (inactive)'),
  ('O=C(O)CCCCC1CCSS1 (centres undefined)', 'normalized growth', '0.992 (inactive)'),
  ('O=C1CCCC2C3CC(CN12)[C@@H]1CCCCN1C3 (some centres undefined)', 'normalized growth', '1 (inactive)'),
  ('CC(C)=CCC/C(C)=C/CC/C(C)=C/CC/C(C)=C/CC/C(C)=C/CC/C(C)=C/CC/C(C)=C/CC/C(C)=C/CC/C(C)=C/CO', 'normalized growth', '0.983 (inactive)'),
  ('Cc1c(O)c(O)cc2c1CC=C1[C@@]2(C)CC[C@@]2(C)C3C[C@](C)(C(=O)O)CC[C@]3(C)CC[C@]12C (some centres undefined)', 'normalized growth', '0.37 (active)'),
  ('C=C(C)C1CC=C(CO)CC1 (centres undefined)', 'normalized growth', '0.983 (inactive)');

// below: normalized growth requested for another molecule
Reported normalized growth, molecule COc1ccccc1OCCNCC(O)COc1cccc2[nH]c3ccccc3c12 (centres undefined) : ____ 1.02 (inactive)

---

Method Summary: chemical genetic growth profiling, strain panel (AID 1159580);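 further: tested at 20 µM; growth read once vehicle control cultures reached saturation at 30 °C; 1 = growth at the plate median or of vehicle wells; lower values mean less growth of the strain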
Cond: S. cerevisiae deletion strains, growth OD, locus YCR088W, strain abp1, hits give low values
In all, about 5,500 compounds went through this assay and about 2,000 (36%) were called active. Roughly 18% stayed inconclusive and do not appear here. The list shows a part of the results.
Recorded Endpoint: normalized growth
Answer with a number only.

Solved entries:
INSERT INTO measurements (compound, observed_result) VALUES
  ('Nc1ncnc2c1ncn2[C@@H]1O[C@H](CO)[C@@H](O)[C@H]1O', 0.994),
  ('O=c1[nH]c(=O)n(C2C[C@@H](O)[C@@H](CO)O2)cc1F (stereo partly specified)', 0.986),
  ('Nc1ccc(C(=O)NCC(=O)O)cc1', 1.01),
  ('Cc1ccc(/C(=C\CN2CCCC2)c2ccccn2)cc1', 1.02),
  ('O=C1C=CC2=C3c4cc(O)c(O)cc4C[C@@]3(O)COC2=C1', 0.99);

Which normalized growth value is on record for Nc1ncn([C@@H]2O[C@H](CO)[C@@H](O)[C@H]2O)c(=O)n1 ? 0.996

Query (compound): C1CNCCN1 ; field requested: normalized growth 1.01

Name the reported normalized growth value associated with the compound C[C@H]1[C@H]2CCC3C4CC=C5C[C@@H](N(C)C)CC[C@]5(C)C4CC[C@@]32CN1C (stereo partly specified) 0.996

Please give the measured normalized growth for this compound: COc1cc(C(=O)NCc2ccc(OCCN(C)C)cc2)cc(OC)c1OC 0.99

Tell me the measured normalized growth of C=C(C)[C@H]1CC=C(C(=O)O)CC1 , please. 0.994

I'd like to know its normalized growth. The compound in question is C1CCN2C[C@@H]3C[C@H](CN4CCCC[C@@H]34)[C@H]2C1 1.01

Every entry's value here was drawn from PubChem BioAssay AID1159580.
